Reported IC50 for target or system UniProt:Q92731, by entry.
Numeric answer only, unit nM assumed.

For this compound ( CC[C@@]12CCC(=O)C(C(F)(F)F)=C1c1ccc3[nH]nc(F)c3c1C2 ), measured IC50 is 0.3

For this compound ( O=C1CC[C@@]2(CC3CC3)Cc3c(ccc4[nH]ncc34)C2=C1Br ), measured IC50 is 4

For this compound ( O=C1CC[C@@]2(CCC3CC3)Cc3c(ccc4[nH]ncc34)C2=C1Br ), measured IC50 is 1.6

* * *

molecular target: Estrogen receptor beta (Homo sapiens)
Sequence (Q92731 whole entry): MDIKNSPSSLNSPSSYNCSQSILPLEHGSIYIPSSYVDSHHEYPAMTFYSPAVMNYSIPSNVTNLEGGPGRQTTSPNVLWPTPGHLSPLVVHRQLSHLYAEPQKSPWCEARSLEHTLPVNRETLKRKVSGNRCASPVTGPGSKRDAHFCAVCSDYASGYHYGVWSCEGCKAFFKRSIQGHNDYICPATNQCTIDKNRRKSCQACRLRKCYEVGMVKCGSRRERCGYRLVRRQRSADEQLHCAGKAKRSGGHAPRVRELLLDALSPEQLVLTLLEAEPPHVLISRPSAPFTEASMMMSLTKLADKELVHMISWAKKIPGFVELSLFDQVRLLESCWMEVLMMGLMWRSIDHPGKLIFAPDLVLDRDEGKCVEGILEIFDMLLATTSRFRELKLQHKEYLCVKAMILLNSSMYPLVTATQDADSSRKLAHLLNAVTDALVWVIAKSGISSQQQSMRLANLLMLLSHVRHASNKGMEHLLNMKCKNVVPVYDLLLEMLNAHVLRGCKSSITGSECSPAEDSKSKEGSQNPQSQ
parameter: pIC50
Note: pIC50 values are expressed as the negative base-10 logarithm of concentration in M.

For this compound ( CCCC[C@@]12CCC(=O)C(CC)=C1c1ccc3[nH]nc(F)c3c1C2 ), measured pIC50 is 9.52

For this compound ( CCCCC12CCC(=O)C(C3CC3)=C1c1ccc3[nH]ncc3c1C2 (racemic) ), measured pIC50 is 8.15

For this compound ( CCCCC12CCC(=O)C(C)=C1c1ccc3[nH]ncc3c1C2 (racemic) ), measured pIC50 is 7.92

For this compound ( CC[C@@]12CCC(=O)C(c3ccccc3)=C1c1ccc3[nH]ncc3c1C2 ), measured pIC50 is 8.85

For this compound ( CCCC12CCC(=O)C(Br)=C1c1ccc3[nH]ncc3c1C2 (racemic) ), measured pIC50 is 8.27
